Can you tell me ELISA OD for the items I'm about to list?
# Target: T1, 15-mer peptide LGIWGCSGKLICTTT (SEQ ID NO:1) (HIV, not fully specified; cysteine pairing not given here)
# T1 construct: also called U1731DB060-1; U173DB060-1
# T1 peptide: LGIWGCSGKLICTTT
# Assay protocol: indirect ELISA; 15-mer peptide coated 1 ug/ml in DTT; antibody at 12 ng/ml
No end group written: not given here.
Record the value in OD, omitting the unit from your answer.

INPUT: Would you kindly share the measured ELISA OD for HIV-binding peptide #8 (antibody, human IgG1, kappa, V domains shown, Recombinant, fully human immunoglobulin; also called U1205DB020-8) VH: QVQLQESGGGVVQPGRSLRLSCAASGFTFSSYAIHWVRQAPGKGLEWVAVISYDGSNRYYADSVKGRFTISRDNSKNTLYLQMNSLRPEDTAVYYCARDRFSAVASTPTYHNYFYMDVWGKGTTVTVSS VL: DIQMTQSPSSLSASVGDRVTITCQASQDISNYLAWYQQKPGQAPRLLIYDASNLETGVPSRFSGSGSGTDFTLTISSLQPEDLATYYCQQYDNLPYTFGQGTKLEIKR ?
OUTPUT: 0.094

INPUT: Would you kindly share the measured ELISA OD for HIV-binding peptide #9Q (antibody, human IgG1, V domains shown) VH: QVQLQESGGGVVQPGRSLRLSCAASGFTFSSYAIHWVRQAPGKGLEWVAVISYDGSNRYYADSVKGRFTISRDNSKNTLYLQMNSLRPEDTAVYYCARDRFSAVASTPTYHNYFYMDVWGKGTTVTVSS ?
OUTPUT: 0.111

INPUT: Would you kindly share the measured ELISA OD for HIV-binding peptide #3 (antibody, human IgG1, kappa, V domains shown, Recombinant, fully human immunoglobulin; also called U1205DB020-3) VH: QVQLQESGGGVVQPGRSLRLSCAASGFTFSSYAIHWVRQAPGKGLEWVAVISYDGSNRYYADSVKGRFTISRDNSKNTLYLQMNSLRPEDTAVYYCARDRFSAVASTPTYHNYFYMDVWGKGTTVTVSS VL: DIQMTQSPSSLSASVGDRVTITCQASQDVNNYLAWYQQKPGQAPRLLIYDASNLETGVPSRFSGSGSGTDFTLTISSLQPEDLATYYCQQYDNLPYTFGQGTKLEIKR ?
OUTPUT: 0.087
